Test system: herpesvirus 5
Assay: herpesvirus 5 plaque reduction assay in MRC-5 cell monolayers
Assay type: cell-based, human herpesvirus 5 (HCMV)
Conditions: Human betaherpesvirus 5, MRC5, read-out: IC50 value (i.e., 50% infectious concentration)
endpoint.label: IC50

smiles.representation | endpoint.label | result
O=C1OCc2c1cc1ccc3c(c1c2-c1ccc2c(c1)OCO2)OCO3 | IC50 | < 100 nM

###

System: herpesvirus 5
Assay: herpesvirus 5 plaque reduction assay in MRC-5 cell monolayers
Assay type: cell-based, human herpesvirus 5 (HCMV)
Conditions: Human betaherpesvirus 5, MRC5; plaque reduction, MRC-5 cells, herpesvirus 5; read-out: IC50 value (i.e., 50% infectious concentration)

compound | target | IC50 (µM)
Nc1nc2c(ncn2COC(CO)CO)c(=O)[nH]1 [GCV, reference compound] | herpesvirus 5 | 1

###

Experiment: cytotoxic effect by MTS assay
Assay type: cell-based
Details: human, read-out: LC50 value (i.e., half lethal concentration)
endpoint.label: CC50

smiles.representation | result
O=C1OCc2c1cc1ccc3c(c1c2-c1ccc2c(c1)OCO2)OCO3 | > 16 µM
